Tested on: CD2F1 mice, L1210 leukemia ip, survival T/C
Test: NCI In Vivo Anticancer Drug Screen. Data for tumor model L1210 Leukemia (intraperitoneal) in CD2F1 (CDF1) mice
Conditions: endpoint: mean survival time; dose: 100.0 mg/kg/injection; schedule: Q01DX009 (ip); vehicle: Klucel (hydroxypropylcellulose) (HPC); higher = longer survival
Toxic doses and inconclusive results are not listed.
Entries and their measured T/C follow.

// below: answered compounds
*Q* What T/C value was documented for this compound, COc1cc2ccc(C=O)cc2cc1OC ?
*A* 86 % of control

*Q* Same lookup for Cc1ccc(S(=O)(=O)N2CCC(=O)c3ccc(Cl)cc32)cc1 , please.
*A* 101 % of control

*Q* Same lookup for Nc1nc(=S)c2ncn(C3CC(O)C(CO)C3)c2[nH]1 (stereo not given) , please.
*A* 91 % of control

*Q* Same lookup for Cc1c(N=O)c(-c2ccccc2)n(O)[n+]1[O-] , please.
*A* 104 % of control

*Q* Same lookup for CCCCN(CCCC)C(Cl)=Nc1ccccc1 , please.
*A* 93 % of control

Next:
*Q* What T/C value was documented for this compound, O=C(NNC(=O)c1ccncc1)NS(=O)(=O)c1ccc(Cl)cc1 ?
*A* 90 % of control

*Q* Same lookup for [Br][Pt+2][Br].[NH-]CC(=O)O.[NH-]CC(=O)O , please.
*A* 86 % of control

###

Entries and their measured T/C follow.
Tested on: CD2F1 mice, L1210 leukemia ip, survival T/C
Test: NCI In Vivo Anticancer Drug Screen. Data for tumor model L1210 Leukemia (intraperitoneal) in CD2F1 (CDF1) mice
Conditions: endpoint: mean survival time; dose: 25.0 mg/kg/injection; schedule: Q01DX009 (ip); vehicle: saline with Tween-80; higher = longer survival
Inconclusive results and toxic doses are left out.

*Q* Item: Cc1cc(C)c(C#[N+][O-])c(C)c1 Test system: CD2F1 mice, L1210 leukemia ip, survival T/C Read-out: T/C Value: ?
*A* 94 % of control

*Q* Same lookup for CCCCCCCCCCCCOC(=O)C[n+]1cccc(C(=O)Nc2ccccc2)c1 , please.
*A* 95 % of control

*Q* Same lookup for ClC1=C(Cl)C2(Cl)C=CC1(Cl)C2(Cl)Cl , please.
*A* 97 % of control

*Q* Same lookup for Cc1ccc([N+](=O)[O-])c(P(=O)(O)O)c1 , please.
*A* 91 % of control

*Q* Same lookup for O=C1c2ccccc2C(=O)c2c(NCCCNCCO)ccc(NCCCNCCO)c21 , please.
*A* 96 % of control

*Q* Same lookup for BrCC1OCCCO1 , please.
*A* 111 % of control

*Q* Same lookup for N#CSc1nc2ccccc2s1 , please.
*A* 96 % of control

*Q* Same lookup for O=C(/C=C/c1ccccc1O)/C=C/c1ccccc1O , please.
*A* 107 % of control

Next:
*Q* Item: CC#CC(=O)SCCNC(=O)CC(C)(C)C Test system: CD2F1 mice, L1210 leukemia ip, survival T/C Read-out: T/C Value: ?
*A* 96 % of control

*Q* Same lookup for C=Cc1c(C)c2cc3[nH]c(cc4nc(cc5nc(cc1[nH]2)C(C)=C5CCC(=O)O)C(CCC(=O)O)=C4C)c(C)c3C=C , please.
*A* 88 % of control

###

Entries and their measured T/C follow.
Test system: CD2F1 mice, L1210 leukemia ip, survival T/C
Assay: NCI In Vivo Anticancer Drug Screen. Data for tumor model L1210 Leukemia (intraperitoneal) in CD2F1 (CDF1) mice
Conditions: endpoint: mean survival time; dose: 200.0 mg/kg/injection; schedule: Q04DX003 (ip); vehicle: saline; higher = longer survival
Toxic doses and inconclusive results are not listed.

*Q* What T/C value was documented for this molecule, CCN(CC)C(=O)N1CCN(c2ccccc2)CC1 ?
*A* 93 % of control

*Q* Same lookup for O=C(O)C1OC1c1ccccc1 (stereo not drawn) , please.
*A* 100 % of control

*Q* Same lookup for CCOCCc1ccncc1 , please.
*A* 104 % of control

Next:
*Q* What T/C value was documented for this molecule, O=C1C=C(S(=O)(=O)O)c2ccccc2C1=O ?
*A* 103 % of control

*Q* Same lookup for O=C(O)CN(CCO)CCO , please.
*A* 102 % of control

*Q* Same lookup for ICC12CCC1(CI)COC2 (stereo not drawn) , please.
*A* 96 % of control

*Q* Same lookup for O=[N+]([O-])c1cc(Br)ccc1P(=O)(O)O , please.
*A* 93 % of control

*Q* Same lookup for CC(C)(C(=O)O)C(=O)O , please.
*A* 100 % of control
